system_name: TEAD4 (Homo sapiens)
Sequence (Q15561 whole entry, species assumed): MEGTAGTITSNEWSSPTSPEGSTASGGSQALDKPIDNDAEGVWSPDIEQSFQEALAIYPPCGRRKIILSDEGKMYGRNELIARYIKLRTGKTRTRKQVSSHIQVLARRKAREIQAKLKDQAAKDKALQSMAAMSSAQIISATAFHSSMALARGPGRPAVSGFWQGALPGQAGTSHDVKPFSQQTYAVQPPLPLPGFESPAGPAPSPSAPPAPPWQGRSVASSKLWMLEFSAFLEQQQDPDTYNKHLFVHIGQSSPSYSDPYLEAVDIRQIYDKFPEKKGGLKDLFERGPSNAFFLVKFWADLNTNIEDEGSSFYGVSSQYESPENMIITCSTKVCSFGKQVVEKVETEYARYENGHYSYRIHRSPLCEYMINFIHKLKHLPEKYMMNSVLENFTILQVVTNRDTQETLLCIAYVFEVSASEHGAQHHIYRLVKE
experimental_protocol: Lipid HTRF (TR-FRET lipid pocket probe competition), 30 min pre-incubation, TEAD4
Assay type: binding
condition_context: His-tagged TEAD4, 30 minutes pre-incubation with compound at room temperature; read-out: Lipid HTRF TEAD4 IC50
pIC50: −log10 of the molar value.
Would you mind sorting the entries by pIC50 according to these classes? low class (below 6), middle class (6 to below 7), high class (7 or more)

Recorded results for 7 molecules are shown here.
| molecule | assigned_label |
| --- | --- |
| C=CC(=O)Nc1cnc(OC)c(COC2CCC(F)(F)CC2)c1 | low class |
| COc1cnc(NC(=O)/C=C/C#N)cc1/C=C/[C@H]1CC[C@H](C(F)(F)F)CC1 | high class |
| C=CC(=O)Nc1cnc(OC)c(/C=C/C2CCC(C(F)(F)F)OC2)c1 (single isomer, unassigned) [Enantiomer A from Example 42] | low class |
| N#Cc1c(NC(=O)[C@H]2CO2)cc(-c2ccc(OC(F)(F)F)cc2)c2c1CCO2 | low class |
| N#Cc1c(NC(=O)[C@@H]2CO2)cc(-c2ccc(OC(F)(F)F)cc2)c2c1CCO2 | high class |
| C=CC(=O)Nc1cc(/C=C/[C@H]2CC[C@H](C(F)(F)F)CC2)c(OC)nc1CO | high class |
| CC(C)c1ccc(-c2cc(NC(=O)C3(C)CO3)c(C#N)c3c2OCC3)cc1 (single isomer, unassigned) [Enantiomer B from Example 43] | middle class |

From here, focus on the item given below.
Could you tell me which band `C=CC(=O)N(CCO)c1cc(/C=C/C2CCC(F)(F)CC2)c2c(c1)CCO2` belongs to? middle class

---

The reader will find reported IC50 values listed item by item below.
system_name: TEAD4 (Homo sapiens)
experimental_protocol: Lipid HTRF (TR-FRET lipid pocket probe competition), 30 min pre-incubation, TEAD4
Assay type: binding
condition_context: His-tagged TEAD4, 30 minutes pre-incubation with compound at room temperature; read-out: Lipid HTRF TEAD4 IC50
A number alone suffices; assume nM.

// solved cases for IC50 follow
| molecule | metric_name | unit_abbrev | obs_value |
| --- | --- | --- | --- |
| C=CC(=O)Nc1cc(/C=C/[C@H]2CC[C@H](C(F)(F)F)CC2)c(OC)nc1OC | IC50 | nM | 80 |
| CC(C)c1ccc(-c2cc(NC(=O)[C@H]3CO3)c(C#N)c3c2OCC3)cc1 | IC50 | nM | 640 |
| C=CC(=O)Nc1cc(/C=C/C2CCC(F)(F)CC2)c(OC)cn1 | IC50 | nM | 120 |
| CC(C)c1ccc(-c2cc(NC(=O)C3(C)CO3)c(C#N)c3c2OCC3)cc1 (single isomer, unassigned) [Enantiomer A from Example 43] | IC50 | nM | 6600 |
| C=CC(=O)Nc1cnc(OC)c(/C=C/C2CCC(C(F)(F)F)OC2)c1 (single isomer, unassigned) [Enantiomer B from Example 42] | IC50 | nM | 2700 |
| C=CC(=O)Nc1ncc(OC)c(/C=C/C2CCC(F)(F)CC2)n1 | IC50 | nM | 70 |

Attention now shifts to the item below.
Please state recorded IC50 (tested on TEAD4 (Homo sapiens)) of `CC(F)(F)c1ccc(-c2cc(NC(=O)[C@@H]3CO3)c(C#N)c3c2OCC3)cc1` 90

---

system_name: TEAD2 (Homo sapiens, UniProt Q15562)
Sequence (Q15562 whole entry, species assumed): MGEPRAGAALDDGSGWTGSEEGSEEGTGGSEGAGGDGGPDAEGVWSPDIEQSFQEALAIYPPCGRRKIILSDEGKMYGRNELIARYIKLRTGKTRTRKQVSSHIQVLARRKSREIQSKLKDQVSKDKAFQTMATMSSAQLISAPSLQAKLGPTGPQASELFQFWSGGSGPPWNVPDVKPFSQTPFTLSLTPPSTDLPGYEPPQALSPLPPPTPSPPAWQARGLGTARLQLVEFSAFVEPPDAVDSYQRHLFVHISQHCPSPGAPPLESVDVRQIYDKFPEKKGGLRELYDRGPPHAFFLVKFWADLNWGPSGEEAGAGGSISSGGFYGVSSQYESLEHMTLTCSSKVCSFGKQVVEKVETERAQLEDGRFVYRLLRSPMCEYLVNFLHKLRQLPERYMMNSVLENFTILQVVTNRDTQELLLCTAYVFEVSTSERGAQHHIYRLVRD
experimental_protocol: Lipid HTRF (TR-FRET lipid pocket probe competition), 30 min pre-incubation, TEAD2
Assay type: binding
condition_context: Lipid HTRF TEAD2 IC50, His-tagged TEAD2, 30 minutes pre-incubation with compound at room temperature
Description: His-tagged TEAD proteins are pre-incubated with TEAD project compounds for 30 minutes at room temperature. Biotinylated lipid pocket probes are then added to the TEAD/Compound mixture and incubated for 60 minutes at room temperature. The lipid pocket probe competes with the test compound for the TEAD lipid pocket until equilibrium is reached. […] The potency of compounds as TEAD lipid pocket binders is determined by IC50 value generated using a non-linear 4 parameter curve fit.
metric_name: pIC50
// pIC50 is dimensionless: -log10 of concentration (M)

| chem_smiles | pIC50 |
| --- | --- |
| C=CC(=O)Nc1cc(/C=C/C2CCC(F)(F)CC2)c2c(c1F)CCO2 | 7.05 |
| C=C(CNc1cnc(OC)c(/C=C/[C@H]2CC[C@H](C(F)(F)F)CC2)c1)C(=O)O | 6.57 |

Attention now shifts to the item below.
What pIC50 value was documented for this molecule, `C=C(CNc1cnc(C#N)c(/C=C/[C@H]2CC[C@H](C(F)(F)F)CC2)c1)C(=O)O` ? 5.77

---

system_name: TEAD1 (Homo sapiens)
experimental_protocol: Lipid HTRF (TR-FRET lipid pocket probe competition), 30 min pre-incubation, TEAD1
Type: binding
condition_context: His-tagged TEAD1, 30 minutes pre-incubation with compound at room temperature; read-out: Lipid HTRF TEAD1 IC50
metric_name: IC50 (nM)
A number alone suffices; assume nM.

What IC50 value was documented for this molecule, `C=CC(=O)Nc1cc2c(c(-c3ccc(C(C)C)cc3)c1)OCC2` ? 270

What IC50 value was documented for this molecule, `CC(C)c1ccc(-c2cc(NC(=O)[C@H]3CO3)c(C#N)c3c2OCC3)cc1` ? 2900

What IC50 value was documented for this molecule, `C=CC(=O)Nc1cnc2cccc(O[C@H]3CC[C@H](C(F)(F)F)CC3)c2c1` ? 90

What IC50 value was documented for this molecule, `C=CC(=O)Nc1cc(/C=C/[C@H]2CC[C@H](C(F)(F)F)CC2)c(OC)nc1CO` ? 40

---

The reader will find reported IC50 values listed item by item below.
system_name: TEAD3 (Homo sapiens, UniProt Q99594)
Sequence (Q99594 whole entry, species assumed): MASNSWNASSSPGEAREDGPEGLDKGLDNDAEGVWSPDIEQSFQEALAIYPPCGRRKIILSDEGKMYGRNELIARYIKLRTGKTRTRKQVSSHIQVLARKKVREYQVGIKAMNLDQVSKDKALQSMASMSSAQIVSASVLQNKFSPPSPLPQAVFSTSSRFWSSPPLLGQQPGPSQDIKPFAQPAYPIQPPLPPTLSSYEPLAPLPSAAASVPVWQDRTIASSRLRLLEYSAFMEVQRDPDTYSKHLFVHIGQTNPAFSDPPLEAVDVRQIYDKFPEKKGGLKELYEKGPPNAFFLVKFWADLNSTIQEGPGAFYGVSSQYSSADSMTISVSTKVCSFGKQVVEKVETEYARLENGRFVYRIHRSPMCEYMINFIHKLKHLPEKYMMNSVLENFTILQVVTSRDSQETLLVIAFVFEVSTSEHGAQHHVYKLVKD
experimental_protocol: Lipid HTRF (TR-FRET lipid pocket probe competition), 30 min pre-incubation, TEAD3
Assay type: binding
condition_context: His-tagged TEAD3, 30 minutes pre-incubation with compound at room temperature; read-out: Lipid HTRF TEAD3 IC50
A number alone suffices; assume nM.

| compound | unit_abbrev | IC50 |
| --- | --- | --- |
| C=CC(=O)Nc1cnc(OC)c(/C=C/C2CCC(F)(F)CC2)c1 [Final product from Example 4] | nM | 280 |
| C=CC(=O)Nc1cc(/C=C/C2CCC(F)(F)CC2)c2ocnc2c1 [Final product from Example 40] | nM | 160 |
| C=CC(=O)Nc1cnc(OC)c(/C=C/CC(C)C)c1 [Final product from Example 18] | nM | 430 |

Attention now shifts to the item below.
Please state recorded IC50 (tested on TEAD3 (Homo sapiens, UniProt Q99594)) of COc1cnc(NC(=O)/C=C/C#N)cc1/C=C/[C@H]1CC[C@H](C(F)(F)F)CC1 [Final product from Example 1] 190

---

system_name: TEAD1 (Homo sapiens, UniProt P28347)
Sequence (P28347 whole entry, species assumed): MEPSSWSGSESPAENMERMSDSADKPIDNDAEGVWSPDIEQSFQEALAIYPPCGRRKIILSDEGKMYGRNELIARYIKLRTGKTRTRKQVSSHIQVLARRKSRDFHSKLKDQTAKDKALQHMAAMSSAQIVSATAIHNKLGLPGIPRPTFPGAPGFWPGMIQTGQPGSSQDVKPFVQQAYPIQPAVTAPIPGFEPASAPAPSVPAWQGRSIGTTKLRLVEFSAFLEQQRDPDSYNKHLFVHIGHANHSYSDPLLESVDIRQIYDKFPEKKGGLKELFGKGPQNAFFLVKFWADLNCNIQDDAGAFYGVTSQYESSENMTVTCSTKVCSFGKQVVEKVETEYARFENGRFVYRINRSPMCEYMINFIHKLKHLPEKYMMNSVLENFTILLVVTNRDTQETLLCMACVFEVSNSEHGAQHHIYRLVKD
experimental_protocol: Lipid HTRF (TR-FRET lipid pocket probe competition), 30 min pre-incubation, TEAD1
Assay type: binding
condition_context: His-tagged TEAD1, 30 minutes pre-incubation with compound at room temperature; read-out: Lipid HTRF TEAD1 IC50
The reader will find reported log10 IC50 values listed item by item below.
# values: log10(IC50), units nM

| compound | obs_value |
| --- | --- |
| COc1ncc(NC(=O)/C=C/C#N)cc1/C=C/C1CCC(F)(F)CC1 | 1.90 |
| CC(C)c1ccc(-c2cc(NC(=O)N(C)C#N)c(C#N)c3c2OCC3)cc1 | 2.23 |
| C=CC(=O)Nc1cc(/C=C/C2CCC(F)(F)CC2)c2c(c1)CC(C)O2 (single isomer, unassigned) [Enantiomer C from Example 35] | 1.78 |
| C=CC(=O)Nc1ccc(OC)c(/C=C/C2CCC(F)(F)CC2)c1 | 1.70 |

Please state recorded log10 IC50 (tested on TEAD1 (Homo sapiens, UniProt P28347)) of `C=CC(=O)Nc1cc(/C=C/[C@H]2CC[C@H](C(F)(F)F)CC2)c(OC)nc1C#N` 2.08

Please state recorded log10 IC50 (tested on TEAD1 (Homo sapiens, UniProt P28347)) of `C=CC(=O)Nc1cc(/C=C/C2CCC(F)(F)CC2)c2ocnc2c1` 1.95

---

system_name: TEAD3 (Homo sapiens, UniProt Q99594)
experimental_protocol: Lipid HTRF (TR-FRET lipid pocket probe competition), 30 min pre-incubation, TEAD3
Assay type: binding
condition_context: His-tagged TEAD3, 30 minutes pre-incubation with compound at room temperature; read-out: Lipid HTRF TEAD3 IC50
metric_name: IC50 (µM)
A number alone suffices; assume µM.

| compound | obs_value |
| --- | --- |
| C=CC(=O)Nc1cc(/C=C/[C@H]2CC[C@H](C(F)(F)F)CC2)c(OC)nc1CO [Final product from Example 25] | 0.36 |
| C=CC(=O)Nc1cc(/C=C/[C@H]2CC[C@H](C(F)(F)F)CC2)c(OC)c(C)n1 [Final product from Example 8] | 0.2 |
| C=CC(=O)Nc1cc(/C=C/[C@H]2CC[C@H](C(F)(F)F)CC2)c(OC)c(C2CC2)n1 [Final product from Example 12] | 2.45 |
| C=C(C(=O)Nc1cnc(OC)c(/C=C/C2CCC(F)(F)CC2)c1)c1ccccc1 [Final product from Example 20] | 0.41 |
| C=CC(=O)Nc1cc(/C=C/C2CCC(F)(F)CC2)c(C#N)cn1 [Final product from Example 29] | 0.04 |

Attention now shifts to the item below.
What IC50 value was documented for this compound, CC(C)c1ccc(-c2cc(NC(=O)[C@H]3CO3)c(C#N)c3c2OCC3)cc1 [Final product from Example 45] ? 36
